- Study System: h-GABA-A α5β3γ2 (Homo sapiens (Human), UniProt P18507+P31644)
- Sequence (P31644 32-462): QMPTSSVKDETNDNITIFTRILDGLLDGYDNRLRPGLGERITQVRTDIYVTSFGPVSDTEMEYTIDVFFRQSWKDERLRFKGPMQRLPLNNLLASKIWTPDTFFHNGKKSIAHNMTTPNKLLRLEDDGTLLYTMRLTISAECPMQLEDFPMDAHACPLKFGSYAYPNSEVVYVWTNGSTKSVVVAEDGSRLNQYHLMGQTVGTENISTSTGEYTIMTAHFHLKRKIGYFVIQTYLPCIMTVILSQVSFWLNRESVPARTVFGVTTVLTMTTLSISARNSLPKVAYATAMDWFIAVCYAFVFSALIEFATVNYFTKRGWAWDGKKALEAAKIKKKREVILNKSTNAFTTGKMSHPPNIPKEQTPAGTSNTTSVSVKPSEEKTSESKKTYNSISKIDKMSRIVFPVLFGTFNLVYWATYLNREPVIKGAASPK
- Sequence (P28472 26-473 partner): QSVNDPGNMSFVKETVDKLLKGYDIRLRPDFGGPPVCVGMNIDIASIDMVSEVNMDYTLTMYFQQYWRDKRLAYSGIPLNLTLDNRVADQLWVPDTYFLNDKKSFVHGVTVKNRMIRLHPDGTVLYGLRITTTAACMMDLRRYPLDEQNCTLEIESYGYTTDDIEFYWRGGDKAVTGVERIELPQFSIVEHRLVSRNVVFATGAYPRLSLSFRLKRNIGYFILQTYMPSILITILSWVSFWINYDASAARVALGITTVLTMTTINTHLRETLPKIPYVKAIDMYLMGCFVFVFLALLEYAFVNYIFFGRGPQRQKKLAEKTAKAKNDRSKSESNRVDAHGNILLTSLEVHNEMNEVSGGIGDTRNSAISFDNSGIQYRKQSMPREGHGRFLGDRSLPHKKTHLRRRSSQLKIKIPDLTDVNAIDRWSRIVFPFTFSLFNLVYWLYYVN
- Sequence (P18507 40-475): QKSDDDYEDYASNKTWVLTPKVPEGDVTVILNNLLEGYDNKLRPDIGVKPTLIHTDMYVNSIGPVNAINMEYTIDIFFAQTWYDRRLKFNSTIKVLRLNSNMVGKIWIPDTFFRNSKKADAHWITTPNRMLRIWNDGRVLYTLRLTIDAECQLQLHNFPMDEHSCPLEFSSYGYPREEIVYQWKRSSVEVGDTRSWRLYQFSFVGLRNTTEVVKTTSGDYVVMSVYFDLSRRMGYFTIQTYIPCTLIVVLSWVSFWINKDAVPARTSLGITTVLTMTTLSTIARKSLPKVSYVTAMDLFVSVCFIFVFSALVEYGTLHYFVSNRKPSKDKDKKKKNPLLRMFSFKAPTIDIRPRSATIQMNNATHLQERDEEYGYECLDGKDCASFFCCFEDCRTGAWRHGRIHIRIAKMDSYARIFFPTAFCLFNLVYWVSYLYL
- Experiment Summary: Two-electrode voltage clamp electrophysiology in Xenopus oocytes expressing GABAA receptors, modulation of GABA EC20 current
- Format: cell-based
- Condition Notes: Xenopus oocytes, GABA EC20, test compound at approx. 30 fold its Ki
Fold increase h-GABA-A α5β3γ2 oocyte values, listed per item
Form field (numeric): enter value without unit.

Previously resolved entries follow.
{"Smiles Input": "COCC1(NC(=O)c2ccc(OCc3c(-c4ccc(C)nc4)noc3C)nn2)CC1", "Fold increase h-GABA-A α5β3γ2 oocyte": 1.86}
{"Smiles Input": "Cc1ccc(-c2noc(C)c2COc2ccc(C(=O)N[C@H]3CC[C@H](OCC(F)F)CC3)nn2)cn1", "Fold increase h-GABA-A α5β3γ2 oocyte": 1.84}
{"Smiles Input": "Cc1ccc(-c2noc(C)c2COc2ccc(C(=O)NCC3(C)COC3)nn2)cn1", "Fold increase h-GABA-A α5β3γ2 oocyte": 1.7}
{"Smiles Input": "Cc1ccc(-c2noc(C)c2COc2ccc(C(=O)N[C@@H]3CCCOC3)nn2)cn1", "Fold increase h-GABA-A α5β3γ2 oocyte": 1.73}
{"Smiles Input": "Cc1ccc(-c2noc(C)c2COc2ccc(C(=O)N3CCC(F)(F)C3)nn2)cn1", "Fold increase h-GABA-A α5β3γ2 oocyte": 1.74}
{"Smiles Input": "Cc1ccc(-c2noc(C)c2COc2ccc(C(=O)N3CC(F)(F)C3)nn2)cn1", "Fold increase h-GABA-A α5β3γ2 oocyte": 1.68}
{"Smiles Input": "Cc1ccc(-c2noc(C)c2COc2ccc(C(=O)NCC3CC3)nn2)cn1", "Fold increase h-GABA-A α5β3γ2 oocyte": 2.02}
{"Smiles Input": "Cc1ccc(-c2noc(C)c2COc2cc3c(cn2)C(=O)N(CCO)C3)cn1", "Fold increase h-GABA-A α5β3γ2 oocyte": 1.74}

Exam item: Which Fold increase h-GABA-A α5β3γ2 oocyte value is on record for "Cc1onc(-c2ccc(C(F)(F)F)nc2)c1COc1ccc(C(=O)NC2CCOCC2)nn1" ?
Marked response: 2.24

Exam item: And "Cc1ccc(-c2noc(C)c2COc2ccc(C(=O)NC3CCOCC3)cn2)nn1" ?
Marked response: 1.2

Exam item: And "Cc1ccc(-c2noc(C)c2COc2ccc(C(=O)NCC(F)(F)F)nn2)cn1" ?
Marked response: 1.91

Exam item: And "CCc1onc(-c2ccc(C)nc2)c1COc1ccc(C(=O)NC2CCOCC2)cn1" ?
Marked response: 2.02

Exam item: And "Cc1ccc(-c2noc(C)c2COc2ccc(C(=O)N3CC(O)C3)nn2)cn1" ?
Marked response: 1.69

Exam item: And "Cc1ccc(-c2noc(C3CC3)c2COc2ccc(C(=O)NC3CCOCC3)nn2)cn1" ?
Marked response: 3.13

====

- Study System: h-GABA-A α5β3γ2 (Homo sapiens (Human), UniProt P18507+P31644)
- Experiment Summary: Two-electrode voltage clamp electrophysiology in Xenopus oocytes expressing GABAA receptors, modulation of GABA EC20 current
- Type: cell-based
- Condition Notes: Xenopus oocytes, GABA EC20, test compound at approx. 30 fold its Ki
Quantity: Fold increase h-GABA-A α5β3γ2 oocyte
Form field (numeric): enter value without unit.

Previously resolved entries follow.
{"Compound": "Cc1ccc(-c2noc(C)c2COc2cnc(C(=O)N[C@@H]3CCCOC3)cn2)cn1", "Reported Result": 1.76}
{"Compound": "Cc1ccc(-c2noc(C)c2COc2ccc(C(=O)NC3CCCC(O)C3)nn2)cn1 (stereo not drawn)", "Reported Result": 1.98}
{"Compound": "Cc1ccc(-c2noc(C)c2COc2ccc(C(=O)N[C@H]3C[C@H](OC(F)F)C3)nn2)cn1", "Reported Result": 1.55}
{"Compound": "Cc1ccc(-c2noc(C)c2COc2ccc(C(=O)N3CCOCC3)nn2)cn1", "Reported Result": 1.99}
{"Compound": "Cc1ccc(-c2noc(C)c2COc2ccc(C(=O)NC3CCS(=O)(=O)C3)nn2)cn1 (racemic)", "Reported Result": 1.65}
{"Compound": "Cc1ccc(-c2noc(C)c2COc2ccc(C(=O)N[C@@]3(C)CCOC3)nn2)cn1 (single isomer, unassigned)", "Reported Result": 1.8}
{"Compound": "Cc1ccc(-c2noc(C)c2COc2ccc(C(=O)N[C@@H]3CCCC[C@@H]3O)nn2)cn1", "Reported Result": 1.54}
{"Compound": "CCO[C@H]1CC[C@H](NC(=O)c2ccc(OCc3c(-c4ccc(C)nc4)noc3C)nn2)CC1", "Reported Result": 1.78}
{"Compound": "Cc1ccc(-c2noc(C)c2COc2cnc(C(=O)NC3CCOC3)cn2)cn1 (stereo in doubt)", "Reported Result": 1.67}
{"Compound": "CC[C@@H](CC#N)NC(=O)c1ccc(OCc2c(-c3ccc(C)nc3)noc2C)nn1", "Reported Result": 1.68}

Exam item: Which Fold increase h-GABA-A α5β3γ2 oocyte value is on record for "Cc1ccc(-c2noc(C)c2COc2ccc(C(N)=O)cn2)cn1" ?
Marked response: 1.6

Exam item: And "COC1CN(C(=O)c2ccc(OCc3c(-c4ccc(C)nc4)noc3C)nn2)C1" ?
Marked response: 1.57

Exam item: And "CCC[C@H](CO)NC(=O)c1ccc(OCc2c(-c3ccc(C)nc3)noc2C)nc1" ?
Marked response: 1.47

Exam item: And "Cc1ccc(-c2noc(C)c2COc2ccc(C(=O)NC(C)(CO)CO)nn2)cn1" ?
Marked response: 1.48

Exam item: And "CCC[C@@H](CO)NC(=O)c1cnc(OCc2c(-c3ccc(C)nc3)noc2C)cn1" ?
Marked response: 2.6

Exam item: And "Cc1ccc(-c2noc(C)c2COc2ccc(C(=O)NC3(C#N)CC3)nn2)cn1" ?
Marked response: 1.86

Exam item: And "CCC[C@@H](CO)NC(=O)c1ccc(OCc2c(-c3cnc(C)c(F)c3)noc2C)nc1" ?
Marked response: 2.44
